# experimental target: NRAS Q61R (Homo sapiens (Human), UniProt P01111+P62937, Q61R)
# Sequence (P01111 whole entry Q61R): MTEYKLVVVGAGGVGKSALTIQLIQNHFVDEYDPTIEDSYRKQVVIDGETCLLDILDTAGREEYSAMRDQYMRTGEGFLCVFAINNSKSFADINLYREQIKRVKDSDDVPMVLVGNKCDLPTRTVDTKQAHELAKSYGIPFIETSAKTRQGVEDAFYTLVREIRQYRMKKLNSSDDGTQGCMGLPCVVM
# Sequence (P62937 whole entry): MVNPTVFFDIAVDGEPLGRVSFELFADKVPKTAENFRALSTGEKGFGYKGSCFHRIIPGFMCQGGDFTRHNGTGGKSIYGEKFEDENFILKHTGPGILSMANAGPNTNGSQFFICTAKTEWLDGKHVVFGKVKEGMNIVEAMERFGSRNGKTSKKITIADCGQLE
# measurement notes: Ras-Raf (BRAF RBD) disruption / FRET / MOA assay, NRAS Q61R
# Format: biochemical
# assay setup: NRAS Q61R; Ras-Raf disruption/FRET/MOA assay; read-out: IC50* NRAS Q61R FRET data
measured endpoint: IC50

[Q] I'd like to know its IC50. The molecule in question is C=CC(=O)N1C[C@@H]2CN(C(=O)N(C)[C@H](C(=O)N[C@H]3Cc4nc(cs4)-c4ccc5c(c4)c(c(-c4cccnc4[C@H](C)OC)n5CC)CC(C)(C)COC(=O)[C@@H]4CCCN(N4)C3=O)C(C)C)C[C@@H]2C1 (atropisomer, axis not shown)
[A] 10 to 100 nM

[Q] Would you kindly share the measured IC50 for C=CC(=O)N1CCO[C@H]2CN(C(=O)N(C)[C@H](C(=O)N[C@H]3Cc4nc(cs4)-c4ccc5c(c4)c(c(-c4cccnc4[C@H](C)OC)n5CC)CC(C)(C)COC(=O)[C@@H]4CCCN(N4)C3=O)C(C)C)C[C@@H]21 (atropisomer, axis not shown) ?
[A] 100 to 1000 nM

[Q] Could you share which IC50 value was measured for CCn1c(-c2cccnc2[C@H](C)OC)c2c3cc(ccc31)-c1csc(n1)C[C@H](NC(=O)[C@H](C(C)C)N(C)C(=O)N1CC(N(C)C(=O)/C=C/CN(C)C)C1)C(=O)N1CCC[C@H](N1)C(=O)OCC(C)(C)C2 (atropisomer, axis not shown) ?
[A] 100 to 1000 nM

[Q] Bench note: what IC50 did C=CC(=O)N1CCO[C@H]2CN(C(=O)N(C)[C@H](C(=O)N[C@H]3C[C@H]4CN(CCO4)c4ccc5c(c4)c(c(-c4cccnc4[C@H](C)OC)n5CC)CC(C)(C)COC(=O)[C@@H]4CCCN(N4)C3=O)C(C)C)C[C@H]21 show?
[A] > 10000 nM
